Origin of values: paper PMC11909086

biological target: GST (glutathione S-transferase); construct: PDB 7BIB is only the docking model; assay: CDNB-GSH conjugation, […] nm, Lineweaver–Burk; assay type: biochemical; details: CDNB and GSH, phosphate pH […]
Endpoint name: Ki (µM)

Look up Ki: COc1ccc(NN=C2C(=NNC(N)=S)CCCC2=NNC(N)=S)cc1 [L]
11.7

Look up Ki: C=C(CC)C(=O)c1ccc(OCC(=O)O)c(Cl)c1Cl [Ethacrynic acid, reference compound]
9.39
